Test system: CAKI-1 renal
ASSAY INFO: NCI-60 one-dose screen, 48 h
MEASUREMENT PARAMETERS: 10 µM
This is part of a sample that, as a whole, favours compounds with a hit. Of some 83,000 tested, about 20% had one in any assay. The source made the active and inactive calls. How the source made its calls: active means growth percent below 10; inactive means the rest.
I would appreciate it if you answered using one of these outcomes: 1 for active, -1 for inactive

Below, 5 compounds whose answers are already recorded.
O=C(CCl)Nc1ccc(Cl)cc1 = 1
CC(C)(C)OOC(=O)/C=C\C(=O)OOC(C)(C)C = -1
COC(=O)C1C(O)C(C)C(O)C(C)/C=C\C=C(C)C(=O)Nc2c(C)c(OC(C)=O)c3c(c2O)C(=O)C(C)=C2OCOC(=C23)C(C)=CC(C)(O)C(O)C(C)C1O (stereo unspecified) = -1
[Cl][Hg][c]1ccc2ccccc2c1 = 1
COc1cc([C@@H]2c3cc4c(c(O)c3C[C@H]3COC(=O)[C@@H]32)OCO4)cc(OC)c1OC = -1

In: Hello, I am checking results. What call was entered for COC(C(=O)C(O)C(C)O)C1Cc2cc3cc(OC4CC(OC(C)=O)C(OC5CC(O)C(OC)C(C)O5)C(C)O4)cc(O)c3c(O)c2C(=O)C1OC1CC(OC2CC(OC3CC(C)(O)C(OC(=O)C(C)C)C(C)O3)C(O)C(C)O2)C(O)C(C)O1 (stereo unspecified) ?
Out: -1

====

Test system: SW-620 colon
ASSAY INFO: NCI-60 one-dose screen, 48 h (100 = growth as untreated, 0 = no growth, -100 = all killed)
MEASUREMENT PARAMETERS: 10 µM
This is part of a sample that, as a whole, favours compounds with a hit. Of some 83,000 tested, about 20% had one in any assay.
Labelling field: enter label 1 if recorded growth is less than 60%. Enter label 0 if it equals or exceeds that cut-off.

Below, 3 molecules whose answers are already recorded.
O=[N+]([O-])c1ccc(Br)c([N+](=O)[O-])c1 = label 1
[Cl][Hg][c]1ccc2ccccc2c1 = label 1
COC12C(COC(N)=O)C3=C(C(=O)C(C)=C(N)C3=O)N1CC1C2N1C (stereo not given) = label 1

In: Given [Cl][Hg][c]1ccc(Cl)s1 , is recorded growth strictly lower than 60%?
Out: label 1

====

System: HCT-15 colon
ASSAY INFO: NCI-60 one-dose screen, 48 h (100 = growth as untreated, 0 = no growth, -100 = all killed)
MEASUREMENT PARAMETERS: 10 µM
Compounds without any hit were thinned out: in the full panel of roughly 83,000, 20% have a hit.
The label depends only on growth: class 1 if it is at least 10%, class 0 if it is smaller.

Below, 5 molecules whose answers are already recorded.
NC(=O)c1cc([N+](=O)[O-])c(Cl)c([N+](=O)[O-])c1Cl = class 0
COC12C(COC(N)=O)C3=C(C(=O)C(C)=C(N)C3=O)N1CC1C2N1C (configuration not stated) = class 1
O=[N+]([O-])c1cc[n+]([O-])c2ccccc12 = class 0
O=C1C=Cc2ccccc2C1=O = class 1
COc1ccc(/C=C(\C)[N+](=O)[O-])cc1OC = class 0

In: Threshold query (growth >= 10%) on O=[N+]([O-])c1ccc(Br)c([N+](=O)[O-])c1
Out: class 1

====

Test system: UO-31 renal
ASSAY INFO: NCI-60 one-dose screen, 48 h
MEASUREMENT PARAMETERS: 10 µM
This is part of a sample that, as a whole, favours compounds with a hit. Of some 83,000 tested, about 20% had one in any assay. Activity calls are given as the source filed them. The calls were made as follows: active = growth percent below 10; inactive = the rest.
I would appreciate it if you answered using one of these outcomes: active, inactive

C#CC1(O)CCC(C(C)(C)C)CC1 (stereo not given) = inactive
C/C1=C\[C@H](C)C[C@H](C)OC(=O)C[C@H](c2ccc(O)cc2)NC(=O)[C@@H](Cc2c(Br)[nH]c3ccccc23)N(C)C(=O)[C@H](C)NC(=O)[C@@H](C)C1 = active
CC/C(=C/c1ccc(OC)cc1)[N+](=O)[O-] = active
O=[N+]([O-])/C=C\c1ccc2c(c1)OCO2 = inactive

Then this compound:
In: Hello, I am checking results. What call was entered for COc1cc(/C=C/[N+](=O)[O-])cc(OC)c1OC ?
Out: active

====

System: SK-MEL-2 melanoma
ASSAY INFO: NCI-60 one-dose screen, 48 h
MEASUREMENT PARAMETERS: 10 µM
Procedure: Growth inhibition of the SK-MEL-2 human tumor cell line is measured as a screen for anti-cancer activity. Cells are grown in 96 well plates and exposed to the test compound for 48 hours. Compounds are tested at a single concentration, which is 10^-5 M for most compounds. The reported endpoint is percent growth (GI% or GIPRCNT), where numbers from 0 - 100% represent growth inhibition, and numbers from -100% - 0 represent cell death. For example, a value of 40 represents 60% growth inhibition. […]
The panel holds about 83,000 compounds, 20% with a hit somewhere; the sample as a whole holds those more often. Activity calls are given as the source filed them. How the source made its calls: active means growth percent below 10; inactive means the rest.
I would appreciate it if you answered using one of these outcomes: y (active), n (inactive)

O=C1CCC(=O)N1SC(Cl)(Cl)Cl = n
CCOP(=O)(OCC)C(O)c1ccccc1Cl (centres undefined) = n
O=C1C=Cc2ccccc2C1=O = n

In: Hello, I am checking results. What call was entered for CC[C@@]1(O)C[C@H](OC2CC(N(C)C)C(O)C(C)O2)c2c(cc3c(c2O)C(=O)c2c(O)ccc(O)c2C3=O)[C@H]1C(=O)OC (some centres undefined) ?
Out: y

In: Hello, I am checking results. What call was entered for C=C1C(=O)O[C@@H]2C[C@@H](C)[C@@H]3C=CC(=O)[C@@]3(C)[C@@H](O)[C@H]12 ?
Out: y

In: Hello, I am checking results. What call was entered for CN(C)CC1(N)C(=O)NC(=O)NC1=O ?
Out: n

====

Tested on: U251 CNS
ASSAY INFO: NCI-60 one-dose screen, 48 h (100 = growth as untreated, 0 = no growth, -100 = all killed)
MEASUREMENT PARAMETERS: 10 µM
The panel holds about 83,000 compounds, 20% with a hit somewhere; the sample as a whole holds those more often.
OBSERVED PROPERTY: growth (%)
Report only the number, with the unit % understood.

COC12c3c(C)cc(O)c4c(=O)occ(c34)C(=O)C1C13COC(=O)c4c(O)cc(C)c(c41)C(=O)C2C3OC(C)=O (stereo unspecified) = 102
COc1ccccc1/C=C/[N+](=O)[O-] = 50.3
CC/C(=C/c1ccc(OC)cc1OC)[N+](=O)[O-] = 43.5

In: Look up growth with U251 CNS for this compound: O=C(CBr)Nc1ccccc1
Out: 91.6

====

System: M14 melanoma
ASSAY INFO: NCI-60 one-dose screen, 48 h (100 = growth as untreated, 0 = no growth, -100 = all killed)
MEASUREMENT PARAMETERS: 10 µM
Compounds without any hit were thinned out: in the full panel of roughly 83,000, 20% have a hit.
# growth annotations
Report only the number, with the unit % understood.

COc1ccccc1[As]=[As]c1ccccc1OC (stereo unspecified) = -81.4
C/C1=C\[C@H](C)C[C@H](C)OC(=O)C[C@H](c2ccc(O)cc2)NC(=O)[C@@H](Cc2c(Br)[nH]c3ccccc23)N(C)C(=O)[C@H](C)NC(=O)[C@@H](C)C1 = -71.2
[Cl][Sn]([c]1ccccc1)([c]1ccccc1)[c]1ccccc1 = -76

In: For the compound shown here, CC1CCC2(OC1)OC1C(O)C3C4CCC5CC(OC6OC(CO)C(OC7OC(CO)C(O)C(OC8OCC(O)C(O)C8O)C7OC7OC(CO)C(O)C(OC8OC(CO)C(O)C(O)C8O)C7O)C(O)C6O)C(O)CC5(C)C4CCC3(C)C1C2C (stereo unspecified) , give the reported growth.
Out: 62.9

In: For the compound shown here, C[CH2][Hg][S]c1ccccc1C(=O)O , give the reported growth.
Out: -67.1

In: For the compound shown here, O=[N+]([O-])c1cc[n+]([O-])c2ccccc12 , give the reported growth.
Out: -92.9

====

Tested on: SR leukemia
ASSAY INFO: NCI-60 one-dose screen, 48 h (100 = growth as untreated, 0 = no growth, -100 = all killed)
MEASUREMENT PARAMETERS: 10 µM
About 83,000 compounds went through this panel and 20% of them were active in at least one assay; those are over-represented in the sample as a whole. Calls of active or inactive are those of the source. The calls were made as follows: active = growth percent below 10; inactive = the rest.
OBSERVED PROPERTY: growth

Previously resolved entries follow.
CC(C)(C)OOC(=O)/C=C\C(=O)OOC(C)(C)C = 93.5% (inactive)
CC/C(=C/c1ccc(OC)cc1)[N+](=O)[O-] = 1.84% (active)
O=C(CCl)Nc1ccc(Cl)cc1 = 29.6% (inactive)
[Cl][Hg][c]1ccc2ccccc2c1 = -38% (active)
CCOP(=O)(OCC)C(O)c1ccccc1Cl (configuration not stated) = 93.2% (inactive)
NNc1ccccc1 = 53% (inactive)

Shifting focus to the compound that follows.
In: For the compound shown here, COc1cc(/C=C/[N+](=O)[O-])cc(OC)c1OC , give the reported growth.
Out: -17.7% (active)

Where do these numbers come from? They come from PubChem BioAssay (NCI).
